PROTOCOL DESCRIPTION: Acute peroral toxicity in mice
CONDITION INFO: mouse, in vivo, po
QUANTITY: LD50 (mg/kg)
Form entry: value (mg/kg) — number only.

- COMPOUND: "[H]/N=C(\\N/C(=N/[H])NCCCCCCNC(=N)NC(=N)Nc1ccc(Cl)cc1)Nc1ccc(Cl)cc1 [Chlorohexidine-digluconate, reference compound]"
  QUANTITY UNIT: "mg/kg"
  LD50: 1800

Suppose we examine the compound CC(C)CCCC(C)NC(=N)NC(=N)NCCCCCCNC(=N)NC(=N)NC(C)CCCC(C)C (stereo not drawn) ; what LD50 value has been reported?
1690

What do you have for `N=C(NCCCCCCNC(=N)NC(=N)NC12CC3CC(CC(C3)C1)C2)NC(=N)NC12CC3CC(CC(C3)C1)C2` ?
2830

----------
Tested on: Staph. aureus
PROTOCOL DESCRIPTION: Inhibition of growth in aqueous solution and subcultivation in liquid medium, Staph. aureus
Assay type: cell-based
CONDITION INFO: Reference: Chlorohexidine=1
QUANTITY: Inhibition of growth relative to chlorohexidine
Enter a number only.

Below, 7 compounds whose answers are already recorded.
- COMPOUND: "CC(C)CCCC(C)NC(=N)NC(=N)NCCCCCCNC(=N)NC(=N)NC(C)CCCC(C)C (stereo not drawn)"
  RECORDED NUMBER: 4
- COMPOUND: "CCCCCC(C)NC(=N)NC(=N)NCCCCCCNC(=N)NC(=N)NC(C)CCCCC.Cl.Cl (stereo not drawn)"
  RECORDED NUMBER: 4
- COMPOUND: "CCC(C)CC(C)NC(=N)NC(=N)NCCCCCCNC(=N)NC(=N)NC(C)CC(C)CC (stereo not drawn)"
  RECORDED NUMBER: 8
- COMPOUND: "N=C(NCCCCCCNC(=N)NC(=N)N1CC2CCC(CC2)C1)NC(=N)N1CC2CCC(CC2)C1"
  RECORDED NUMBER: 1
- COMPOUND: "N=C(NCCCCCCNC(=N)NC(=N)NC12CC3CC(CC(C3)C1)C2)NC(=N)NC12CC3CC(CC(C3)C1)C2"
  RECORDED NUMBER: 16
- COMPOUND: "N=C(NCCCCCCNC(=N)NC(=N)NCC1CCCCC1)NC(=N)NCC1CCCCC1"
  RECORDED NUMBER: 2
- COMPOUND: "CC(C)CCC(C)NC(=N)NC(=N)NCCCCCCNC(=N)NC(=N)NC(C)CCC(C)C.Cl.Cl (stereo not drawn)"
  RECORDED NUMBER: 8

Suppose we examine the compound CCCCC(CC)CNC(=N)NC(=N)NCCCCCCNC(=N)NC(=N)NCC(CC)CCCC (stereo not drawn) [Compound 9, reference compound] ; what Inhibition of growth relative to chlorohexidine value has been reported?
8

----------
Catalogue of Plaque index values
Test system: plaque
PROTOCOL DESCRIPTION: Plaque-index on test persons after mouth rinsing
Assay type: in vivo
CONDITION INFO: rinsing with 10 ml of 1,1 mM solution 3 times daily for 3 days; scale 0 (no plaque) to 3 (clearly visible plaque marginally)

Below, 4 compounds whose answers are already recorded.
- COMPOUND: "N=C(NCCCCCCNC(=N)NC(=N)NCC1CCCCC1)NC(=N)NCC1CCCCC1 [Compound 3]"
  Plaque index: "0,19"
- COMPOUND: "N=C(NCCCCCCNC(=N)NC(=N)NC12CC3CC(CC(C3)C1)C2)NC(=N)NC12CC3CC(CC(C3)C1)C2 [Compound 4]"
  Plaque index: "0,36"
- COMPOUND: "CCC(C)CC(C)NC(=N)NC(=N)NCCCCCCNC(=N)NC(=N)NC(C)CC(C)CC (centres unmarked) [Compound 7]"
  Plaque index: "0,29"
- COMPOUND: "CC(C)CCCC(C)NC(=N)NC(=N)NCCCCCCNC(=N)NC(=N)NC(C)CCCC(C)C (centres unmarked) [Compound 1]"
  Plaque index: "0,36"

Now take the following compound into account.
Suppose we examine the compound N=C(NCCCCCCNC(=N)NC(=N)N1CC2CCC(CC2)C1)NC(=N)N1CC2CCC(CC2)C1 [Compound 2] ; what Plaque index value has been reported?
0,58

Source: patent US4022834A
